Data origin: paper doi:10.1101/2025.03.04.641353

- TARGET OF ASSAY: Bovine serum albumin (BSA) (Bos taurus, UniProt P02769 25-607)
- Sequence (P02769 25-607): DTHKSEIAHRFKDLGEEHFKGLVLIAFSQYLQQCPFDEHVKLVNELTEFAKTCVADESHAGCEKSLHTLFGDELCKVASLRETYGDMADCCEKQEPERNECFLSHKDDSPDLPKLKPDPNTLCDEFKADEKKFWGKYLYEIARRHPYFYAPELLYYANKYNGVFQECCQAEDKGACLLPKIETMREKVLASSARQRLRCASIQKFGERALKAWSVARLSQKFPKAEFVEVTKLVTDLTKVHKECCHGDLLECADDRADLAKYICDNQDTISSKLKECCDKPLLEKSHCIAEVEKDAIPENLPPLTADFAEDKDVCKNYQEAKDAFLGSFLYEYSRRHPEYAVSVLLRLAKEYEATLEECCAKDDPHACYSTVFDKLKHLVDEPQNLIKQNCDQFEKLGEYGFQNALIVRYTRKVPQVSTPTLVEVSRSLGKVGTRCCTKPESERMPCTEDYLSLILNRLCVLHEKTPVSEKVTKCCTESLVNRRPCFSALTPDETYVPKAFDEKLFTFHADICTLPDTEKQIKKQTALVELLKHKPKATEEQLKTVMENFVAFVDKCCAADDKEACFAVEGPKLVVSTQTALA
- METHOD NOTES: SYBR Green I fluorescence titration
REPORTED PROPERTY: Kd

I would be grateful if you could share the reported Kd for Ni_apt (ssDNA) DNA: AAAAAAAAAAGCAGCACAGAGGTCAGATGGTATCGAGCGCAGGGCCGCCTTTGTT .
120 nM
